Assayed system: TEC (Homo sapiens, UniProt P42680)
Sequence (P42680 whole entry): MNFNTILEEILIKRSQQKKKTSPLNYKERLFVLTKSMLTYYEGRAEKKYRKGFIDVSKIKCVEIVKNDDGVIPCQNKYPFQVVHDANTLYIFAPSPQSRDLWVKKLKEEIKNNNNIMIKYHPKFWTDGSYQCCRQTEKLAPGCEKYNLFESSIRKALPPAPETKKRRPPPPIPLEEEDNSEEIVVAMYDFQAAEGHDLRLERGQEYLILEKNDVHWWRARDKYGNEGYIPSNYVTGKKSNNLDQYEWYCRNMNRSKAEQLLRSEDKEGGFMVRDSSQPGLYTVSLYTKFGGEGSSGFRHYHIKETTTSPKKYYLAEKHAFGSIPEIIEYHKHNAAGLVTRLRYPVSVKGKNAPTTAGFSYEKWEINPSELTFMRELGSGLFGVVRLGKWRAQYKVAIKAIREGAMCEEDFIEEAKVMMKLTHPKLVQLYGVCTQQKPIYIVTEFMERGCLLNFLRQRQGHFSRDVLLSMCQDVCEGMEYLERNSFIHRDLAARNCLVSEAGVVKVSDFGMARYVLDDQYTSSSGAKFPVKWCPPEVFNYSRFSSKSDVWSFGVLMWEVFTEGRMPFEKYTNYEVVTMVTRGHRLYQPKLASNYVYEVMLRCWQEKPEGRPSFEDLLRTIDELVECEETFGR
Assay: Inhibition of a panel of kinases, in vitro HotSpot kinase assay: TEC
Type: biochemical
Condition: E compounds, Table 17
Measured IC50 accompanies every entry in the list below.
Quantity kind: IC50

INSERT INTO measurements (chemical_string, quantity_kind, observed_measurement) VALUES
  ('C[C@@H]1CCN(c2cnc(C(N)=O)c(Nc3cnn(C)c3)n2)C[C@@H]1NC(=O)c1ccc(C2CC2)cc1', 'IC50', '1000 to 10000 nM'),
  ('C=CC(=O)N1CCC[C@@H](Nc2nnc(C(N)=O)c(Nc3ccc(S(F)(F)(F)(F)F)cc3)n2)C1', 'IC50', '≤ 10 nM'),
  ('C=CC(=O)N1CCC[C@@H](Nc2nnc(C(N)=O)c(Nc3ccc(S(C)(=O)=O)cc3)n2)C1', 'IC50', '≤ 10 nM'),
  ('C=CC(=O)N1CC[C@@H](N(C)c2cnc(C(N)=O)c(Nc3ccc(-c4ncco4)cc3)n2)C1', 'IC50', '≤ 10 nM'),
  ('C=CC(=O)N1CCC[C@@H](Nc2nnc(C(N)=O)c(Nc3cncc(F)c3)n2)C1', 'IC50', '≤ 10 nM'),
  ('C=CC(=O)N1CCC[C@@H](Nc2nnc(C(N)=O)c(Nc3ccc4ncccc4c3)n2)C1', 'IC50', '≤ 10 nM'),
  ('C[C@@H]1[C@H](NC(=O)c2ccc(C3CC3)cc2)CCCN1c1cnc(C(N)=O)c(Nc2ccc(N3CCN(C4COC4)C[C@@H]3C)cc2)n1', 'IC50', '≤ 10 nM'),
  ('C=CC(=O)N1CCC[C@@H](Nc2nnc(C(N)=O)c(Nc3cccc(C(=O)NCc4ccccc4)c3)n2)C1', 'IC50', '≤ 10 nM'),
  ('C=CC(=O)N[C@@H]1CCCN(c2cnc(C(N)=O)c(Nc3cnn(C)c3)n2)[C@@H]1C', 'IC50', '≤ 10 nM'),
  ('C=CC(=O)NC[C@@H]1CCCN1c1nnc(C(N)=O)c(Nc2ccc(C(C)C)cc2)n1', 'IC50', '100 to 1000 nM'),
  ('C=CC(=O)NC[C@H]1CCCN1c1nnc(C(N)=O)c(Nc2ccc(C(C)C)cc2)n1', 'IC50', '≤ 10 nM');

----------
// reported IC50 for each item listed
Assayed system: UniProt:P06239
Sequence (P06239 whole entry): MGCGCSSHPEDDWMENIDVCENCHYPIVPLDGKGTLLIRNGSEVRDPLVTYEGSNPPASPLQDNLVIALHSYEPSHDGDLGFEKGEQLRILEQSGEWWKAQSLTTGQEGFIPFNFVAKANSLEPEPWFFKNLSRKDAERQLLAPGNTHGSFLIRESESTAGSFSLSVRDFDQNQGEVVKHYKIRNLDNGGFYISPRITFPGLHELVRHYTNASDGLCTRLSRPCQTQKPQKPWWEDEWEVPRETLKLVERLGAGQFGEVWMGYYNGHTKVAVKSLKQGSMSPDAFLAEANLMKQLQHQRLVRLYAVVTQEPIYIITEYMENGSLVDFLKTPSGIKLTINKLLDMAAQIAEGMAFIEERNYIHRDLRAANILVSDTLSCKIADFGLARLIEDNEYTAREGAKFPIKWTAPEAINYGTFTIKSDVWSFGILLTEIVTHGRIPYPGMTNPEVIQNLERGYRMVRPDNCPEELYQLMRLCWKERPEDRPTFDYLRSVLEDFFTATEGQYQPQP
Assay: Inhibition of a panel of kinases, in vitro HotSpot kinase assay: LCK
Assay type: biochemical
Condition: D-compounds panel data; 1 μM ATP; read-out: IC50 LCK
Quantity kind: IC50

INSERT INTO measurements (compound, observed_measurement) VALUES
  ('CC1(c2ccc(Nc3nc(N4CCC[C@@H](n5ccc6cc(C7CC7)ccc6c5=O)C4)cnc3C(N)=O)cc2)CCN(C2CCCC2)CC1 [Example D-177]', '10 to 100 nM'),
  ('Cn1cc(Nc2nc(N3CCC[C@H]4[C@@H]3CCCN4C(=O)c3ccc(C4CC4)cc3)cnc2C(N)=O)cn1 [Example D-47]', '> 10000 nM'),
  ('Cc1nc2cc(C(=O)N[C@@H]3CCCN(c4cnc(C(N)=O)c(Nc5cnn(C)c5)n4)[C@@H]3C)ccc2o1 [Example D-238]', '10 to 100 nM'),
  ('C[C@@H]1[C@H](NC(=O)c2ccc(C(F)(F)F)cc2)CCCN1c1cnc(C(N)=O)c(Nc2ccc(N3CCN(C)CC3)cc2)n1 [Example D-11]', '10 to 100 nM'),
  ('C[C@@H]1[C@H](NC(=O)c2ccc(C3CC3)cc2F)CCCN1c1cnc(C(N)=O)c(Nc2ccc(N3CCN(C)CC3)cc2)c1 [Example D-126]', '100 to 1000 nM'),
  ('C[C@@H]1[C@H](NC(=O)c2ccc(C(C)(C)O)nc2)CCCN1c1nnc(C(N)=O)c(Nc2cnn(C)c2)n1 [Example D-41]', '10 to 100 nM'),
  ('Cc1cc(Nc2nc(N3CCC[C@@H](c4ncc(-c5ccc(C6CC6)cc5)[nH]4)[C@H]3C)cnc2C(N)=O)sn1 [Example D-186]', '1000 to 10000 nM'),
  ('Cn1cc(Nc2nc(N3CC[C@@H](O)[C@H](NC(=O)c4ccc(C5CC5)cc4)C3)cnc2C(N)=O)cn1 (racemic) [Example D-26]', '1000 to 10000 nM');

// provenance: patent US20210070748A1
